Just for reference, ChEMBL document CHEMBL4610038 is where these values come from.

Overview of recorded pIC50 for various molecules
# Tested on: MCF-10A
# assay info: Cytotoxicity against human MCF10A cells assessed as reduction in cell viability
# Assay type: cell-based
pIC50: −log10 of the molar value.
measured quantity: pIC50

structure notation | measured quantity | reported
O=[N+]([O-])c1ccc(NC(CO)CO)cc1C(F)(F)F | pIC50 | < 4.00
O=[N+]([O-])c1ccc(NC(CCl)CCl)cc1C(F)(F)F | pIC50 | < 4.00
O=[N+]([O-])c1ccc(NC(CO)CO)c(C(F)(F)F)c1 | pIC50 | < 4.00
O=[N+]([O-])c1cc(C(F)(F)F)ccc1NC(CO)CO | pIC50 | < 4.00
O=[N+]([O-])c1ccc(NC(CCl)CCl)c(C(F)(F)F)c1 | pIC50 | 4.09
O=[N+]([O-])c1ccc(NC(CO)CO)cc1 | pIC50 | < 4.00

* * *

# Test system: SUNE1
# assay info: Cytotoxicity against human SUNE1 cells assessed as cell viability at 100 uM relative to control
# Format: functional
# test conditions: read-out: Activity
# note: exactly 50% is not below, so it is criterion not met; use criterion met for viability at 100 µM strictly under it

structure notation | label class
O=[N+]([O-])c1cc(C(F)(F)F)ccc1NC(CCl)CCl | criterion met
O=[N+]([O-])c1ccc(NC(CO)CO)c(C(F)(F)F)c1 | criterion not met
O=[N+]([O-])c1ccc(NC(CO)CO)c([N+](=O)[O-])c1 | criterion not met
O=[N+]([O-])c1ccccc1NC(CO)CO | criterion not met
O=[N+]([O-])c1ccc(NC(CO)CO)cc1C(F)(F)F | criterion not met
O=[N+]([O-])c1ccccc1NC(CCl)CCl | criterion not met

* * *

# Test system: Caco-2
# assay info: Cytotoxicity against human Caco2 cells assessed as cell viability at 100 uM relative to control
# Assay type: functional
# test conditions: read-out: Activity
# note: exactly 90% is not below, so it is Not met; use Met for viability at 100 µM strictly under it

structure notation | label class
O=[N+]([O-])c1ccc(NC(CO)CO)c([N+](=O)[O-])c1 | Not met
O=[N+]([O-])c1cc(C(F)(F)F)ccc1NC(CCl)CCl | Met
O=[N+]([O-])c1ccc(NC(CO)CO)cc1 | Not met

* * *

# assay info: Cytotoxicity against human MRC5 cells assessed as cell viability at 100 uM relative to control
# Assay type: cell-based
# test conditions: read-out: Activity
# note: exactly 60% is not below, so it is NOT MET; use MET for viability at 100 µM strictly under it

structure notation | label class
O=[N+]([O-])c1cc(C(F)(F)F)ccc1NC(CCl)CCl | MET
O=[N+]([O-])c1ccc(NC(CO)CO)c([N+](=O)[O-])c1 | NOT MET
O=[N+]([O-])c1ccc(NC(CCl)CCl)c(C(F)(F)F)c1 | MET
O=[N+]([O-])c1ccc(NC(CO)CO)cc1C(F)(F)F | MET
O=[N+]([O-])c1cc(C(F)(F)F)ccc1NC(CO)CO | NOT MET
O=[N+]([O-])c1ccc(NC(CO)CO)cc1 | MET
O=[N+]([O-])c1ccc(NC(CO)CO)c(C(F)(F)F)c1 | NOT MET

* * *

# Tested on: SW1990
# assay info: Cytotoxicity against human SW1990 cells assessed as reduction in cell viability
# Assay type: functional, cell-based

structure notation | IC50
O=[N+]([O-])c1ccccc1NC(CCl)CCl | > 100 µM
O=[N+]([O-])c1cc(C(F)(F)F)ccc1NC(CO)CO | > 100 µM
O=[N+]([O-])c1ccc(NC(CCl)CCl)c([N+](=O)[O-])c1 | > 100 µM
O=[N+]([O-])c1ccc(NC(CCl)CCl)cc1C(F)(F)F | 55.8 µM
O=[N+]([O-])c1ccc(NC(CO)CO)cc1C(F)(F)F | > 100 µM
